Data origin, for the record: patent US20200270309A1

# METHOD_DESCRIPTION: Half-lives and pharmacokinetic parameters of polypeptides vs HM-1
# MEASUREMENT_CONTEXT: in vivo
Peptide text beside a SMILES is read from it. * marks the point of attachment. X47 = O=C1C=CC(=O)N1c1ccccc1CCCCC(=O)*; X79 = O=C1C=CC(=O)N1c1cccc(CCC(=O)*)c1; X77 = O=C1C=CC(=O)N1CCCCCCCCCCC(=O)*; X3 = O=C1C=CC(=O)N1CCOCCOCCCCC(=O)*; X32 = O=C1C=CC(=O)N1CCOCCOCCC(=O)*; X57 = O=C1C=CC(=O)N1CCCCCCCC(=O)*
ENDPOINT_NAME: AUC(0-inf) (ng·h/mL)
Reply numerically in ng·h/mL, unit not repeated.

COMPOUND	AUC(0-inf) (ng·h/mL)
C[C@H](NC(=O)CNC(=O)[C@H](CCCNC(=N)N)NC(=O)CCc1cccc(N2C(=O)C=CC2=O)c1)C(=O)N[C@@H](CC(=O)O)C(=O)N[C@@H](CCCNC(=N)N)C(=O)N[C@@H](C)C(=O)NCC(=O)NCC(=O)NCC(=O)NCC(=O)N[C@@H](CCCNC(=N)N)C(=O)NCC(=O)N[C@@H](CC(=O)O)C(=O)O [X26] (X79-RGADRAGGGGRGD-OH)	34600
C[C@H](NC(=O)CNC(=O)[C@H](CCCNC(=N)N)NC(=O)CCOCCOCCN1C(=O)C=CC1=O)C(=O)N[C@@H](CC(=O)O)C(=O)N[C@@H](CCCNC(=N)N)C(=O)N[C@@H](C)C(=O)NCC(=O)NCC(=O)NCC(=O)NCC(=O)N[C@@H](CCCNC(=N)N)C(=O)NCC(=O)N[C@@H](CC(=O)O)C(=O)O [X57] (X32-RGADRAGGGGRGD-OH)	33800
C[C@H](NC(=O)CNC(=O)[C@H](CCCNC(=N)N)NC(=O)CCCCCCCCCCN1C(=O)C=CC1=O)C(=O)N[C@@H](CC(=O)O)C(=O)N[C@@H](CCCNC(=N)N)C(=O)N[C@@H](C)C(=O)NCC(=O)NCC(=O)NCC(=O)NCC(=O)N[C@@H](CCCNC(=N)N)C(=O)NCC(=O)N[C@@H](CC(=O)O)C(=O)O [X10] (X77-RGADRAGGGGRGD-OH)	31200
C[C@H](NC(=O)CNC(=O)[C@H](CCCNC(=N)N)NC(=O)CCCCc1ccccc1N1C(=O)C=CC1=O)C(=O)N[C@@H](CC(=O)O)C(=O)N[C@@H](CCCNC(=N)N)C(=O)N[C@@H](C)C(=O)NCC(=O)NCC(=O)NCC(=O)NCC(=O)N[C@@H](CCCNC(=N)N)C(=O)NCC(=O)N[C@@H](CC(=O)O)C(=O)O [X16] (X47-RGADRAGGGGRGD-OH)	31400

Ask: Please give the measured AUC(0-inf) for this compound: C[C@H](NC(=O)CNC(=O)[C@H](CCCNC(=N)N)NC(=O)CCCCOCCOCCN1C(=O)C=CC1=O)C(=O)N[C@@H](CC(=O)O)C(=O)N[C@@H](CCCNC(=N)N)C(=O)N[C@@H](C)C(=O)NCC(=O)NCC(=O)NCC(=O)NCC(=O)N[C@@H](CCCNC(=N)N)C(=O)NCC(=O)N[C@@H](CC(=O)O)C(=O)O [X59] (X3-RGADRAGGGGRGD-OH)
Reply: 30300

Ask: Another: C[C@H](NC(=O)CNC(=O)[C@H](CCCNC(=N)N)NC(=O)CCCCCCCN1C(=O)C=CC1=O)C(=O)N[C@@H](CC(=O)O)C(=O)N[C@@H](CCCNC(=N)N)C(=O)N[C@@H](C)C(=O)NCC(=O)NCC(=O)NCC(=O)NCC(=O)N[C@@H](CCCNC(=N)N)C(=O)NCC(=O)N[C@@H](CC(=O)O)C(=O)O [X7] (X57-RGADRAGGGGRGD-OH)
Reply: 34500
